Hey, just so you know, these numbers are from the Immune Epitope Database (IEDB).

target: HLA-B*15:01; experiment: IEDB peptide-MHC binding, purified MHC/direct/fluorescence; filed as Kd, often an IC50 or EC50 that approximates it; bounds were set here for any values at or beyond the usual limits of such assays; conditions: source organism: Yellow fever virus
property.label: Kd

Request: Fill in the blank: the reported Kd of YFHKRDMRL is ____.
Result: ≥ 20 µM

* * *

molecular target: HLA-A*03:01; assay: IEDB peptide-MHC binding, purified MHC/competitive/fluorescence; filed as Kd, often an IC50 or EC50 that approximates it; bounds were set here for any values at or beyond the usual limits of such assays; conditions: source organism: Francisella tularensis subsp. tularensis FSC198
pKd: −log10 of the molar value.
property.label: pKd

Request: Tell me the measured pKd of RSFPEWDYI , please.
Result: ≤ 4.70

* * *

Kindly state Kd for each of the entries shown.
target: HLA-A*26:01; assay: IEDB peptide-MHC binding, purified MHC/competitive/radioactivity; filed as Kd, often an IC50 or EC50 that approximates it; bounds were set here for any values at or beyond the usual limits of such assays; conditions: source organism: SARS coronavirus Tor2
One number for each entry, in µM.

# annotated cases, reported Kd shown
[[record]]
sequence_content = "FNAPALQEAY"
test_result = 0.526

[[record]]
sequence_content = "VYRGTTTYKL"
test_result = 1


# per-item lookup of Kd; items listed below
1. TEETFKLSY
2. VIEGPTTCGY
3. SSLPSYAAY

Result:
1. 15.3
2. 0.907
3. 5.04

For every record below, what is its Kd?
1. RLSFKELLVY
2. LFLAFVVFLL

Result:
[10.1, 0.251]

* * *

biological target: HLA-A*02:03; test: IEDB peptide-MHC binding, purified MHC/competitive/fluorescence; filed as Kd, often an IC50 or EC50 that approximates it; bounds were set here for any values at or beyond the usual limits of such assays; conditions: source organism: Escherichia coli B171
property.label: Kd

Request: Any idea what its Kd is? The sequence is KAIIDTAQF
Result: ≥ 20 µM

* * *

target: HLA-B*83:01; assay: IEDB peptide-MHC binding, purified MHC/competitive/fluorescence; filed as Kd, often an IC50 or EC50 that approximates it; bounds were set here for any values at or beyond the usual limits of such assays; conditions: source organism: Mycobacterium tuberculosis H37Rv
property.label: pKd
One number for each entry, as −log10 of the molar value.

Request: I'm curious: which pKd was measured for SPAAYVLPL tested on HLA-B*83:01?
Result: 6.81

* * *

molecular target: HLA-C*14:02; assay: IEDB peptide-MHC binding, purified MHC/direct/fluorescence; filed as Kd, often an IC50 or EC50 that approximates it; bounds were set here for any values at or beyond the usual limits of such assays; conditions: source organism: Mycobacterium tuberculosis variant bovis BCG str. Pasteur 1173P2
property.label: Kd

Request: Which value of Kd has been reported for AARIAGRHM in the records?
Result: 654 nM

* * *

Provide the reported pKd of each item.
molecular target: HLA-C*04:01; assay: IEDB peptide-MHC binding, purified MHC/competitive/fluorescence; filed as Kd, often an IC50 or EC50 that approximates it; bounds were set here for any values at or beyond the usual limits of such assays; conditions: source organism: Giardia lamblia ATCC 50803
pKd: −log10 of the molar value.

Could you report pKd for every entry in the following list?
1. YMRERFEPM
2. MTDVDLNYY

Result:
≤ 5.30
≤ 5.30
